Hey, just so you know, these numbers are from patent US20260055079A1.

Target: His-GST-PARP7 (Homo sapiens (Human))
Sequence (Q7Z3E1 whole entry): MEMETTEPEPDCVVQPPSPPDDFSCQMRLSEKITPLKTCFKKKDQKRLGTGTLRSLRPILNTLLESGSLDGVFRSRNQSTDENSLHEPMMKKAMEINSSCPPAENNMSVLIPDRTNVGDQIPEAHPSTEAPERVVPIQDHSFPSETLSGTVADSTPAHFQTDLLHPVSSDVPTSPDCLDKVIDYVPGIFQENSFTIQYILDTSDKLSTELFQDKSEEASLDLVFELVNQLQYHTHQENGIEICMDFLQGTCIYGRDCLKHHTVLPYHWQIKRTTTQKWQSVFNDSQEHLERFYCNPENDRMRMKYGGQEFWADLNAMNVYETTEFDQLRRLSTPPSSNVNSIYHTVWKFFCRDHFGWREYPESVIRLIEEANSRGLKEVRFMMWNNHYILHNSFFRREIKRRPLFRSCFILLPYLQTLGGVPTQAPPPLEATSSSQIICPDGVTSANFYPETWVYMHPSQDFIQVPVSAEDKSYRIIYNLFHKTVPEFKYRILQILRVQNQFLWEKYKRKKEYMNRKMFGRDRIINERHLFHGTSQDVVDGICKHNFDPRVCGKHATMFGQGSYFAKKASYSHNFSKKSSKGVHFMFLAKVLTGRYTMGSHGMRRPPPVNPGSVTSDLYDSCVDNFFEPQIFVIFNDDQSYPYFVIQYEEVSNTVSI
Test: PARP7 biochemical assay
Settings: read-out: PARP7 IC50
ASSAY_METRIC: IC50

MOLECULE	RESULT
CC(F)(F)c1ccc2c(=O)[nH]nc(Cc3ccc(F)c(C(=O)N4CCN(c5ccc(C#N)cn5)CC4)c3)c2c1	50 to 100 nM
N#Cc1ccc(N2CCN(C(=O)c3cc(Cc4n[nH]c(=O)c5ccc(C#CC(F)(F)F)cc45)ccc3F)CC2)nc1	< 50 nM
COC1CN(c2ccc3c(=O)[nH]nc(Cc4ccc(F)c(C(=O)N5CCN(c6ccc(C#N)cn6)CC5)c4)c3c2)C1	< 50 nM
C#CCOc1ccc2c(=O)[nH]nc(Cc3ccc(F)c(C(=O)N4CCN(c5ccc(C#N)cn5)CC4)c3)c2c1	< 50 nM
N#Cc1ccc(N2CCN(C(=O)c3cc(Cc4n[nH]c(=O)c5ccc(N6CC(F)(F)C6)cc45)ccc3F)CC2)nc1	< 50 nM
N#Cc1ccc(N2CCN(C(=O)c3cccc(Cc4n[nH]c(=O)c5c(F)cccc45)c3)CC2)nc1	< 50 nM
CC(C)(C)Cc1ccc2c(=O)[nH]nc(Cc3ccc(F)c(C(=O)N4CCN(c5ccc(C#N)cn5)CC4)c3)c2c1	100 to 500 nM
CC#Cc1ccc2c(=O)[nH]nc(Cc3ccc(F)c(C(=O)N4C5CCC4CN(c4ccc(C#N)cn4)C5)c3)c2c1	< 50 nM
O=C(c1cc(Cc2n[nH]c(=O)c3ccc(C4CC4)cc23)ccc1F)N1CCN(c2ncc(C(F)(F)F)cn2)CC1	< 50 nM
N#Cc1ccc(N2CC(NC(=O)c3cc(Cc4n[nH]c(=O)c5ccc(OC6CCC6)cc45)ccc3F)C2)nc1	> 2000 nM
CN(C(=O)CC#N)C1CN(C(=O)c2cc(Cc3n[nH]c(=O)c4ccc(OC5CCC5)cc34)ccc2F)C1	500 to 2000 nM
O=C(c1cc(Cc2n[nH]c(=O)c3ccc(OC4CCC4)cc23)ccc1Cl)N1CCN(c2ncc(C(F)(F)F)cn2)CC1	< 50 nM
CC#Cc1ccc2c(=O)[nH]nc(Cc3ccc(F)c(C(NCCN(CC)c4ccc(C#N)cn4)C(F)(F)F)c3)c2c1 (centres unmarked)	> 2000 nM
O=c1[nH]nc(Cc2ccc3onc(N4CCN(c5ncc(C(F)(F)F)cn5)CC4)c3c2)c2cc(OC3CCC3)ccc12	> 2000 nM
